The reported numbers originate from PubChem BioAssay AID651647.

target: Matrix metalloproteinase-14 (Homo sapiens) (UniProt P50281); test: blockers of MT1-MMP proenzyme processing, primary screen, HT1080 RFP-PRO-GFP cells, GFP/RFP fluorescence (AID 651647); settings: overnight, at 20 µM, percent of plate control window, DMSO zero
Screen size: about 360,000 compounds; about 220 (0.061%) were called active.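 Rule for the calls: active = GFP/RFP ratio change of at least 30% with cell ATP level not reduced by more than half and red fluorescence within 50% of control; inactive = the rest, inconclusive results apart.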 The sample holds actives, similar compounds and a random draw of the others, so the mix is not that of the screen.
Hi there, use one of these labels in your reply, thanks! label 1 (active), label 0 (inactive)

INSERT INTO assay_data (molecule, classification) VALUES
  ('N/C(=N\c1nc2ccccc2o1)NC(=O)C(Cc1ccccc1)N1C(=O)c2ccccc2C1=O (centres undefined)', 'label 0'),
  ('O=C(Nc1ccn(CCCNCc2ccc3[nH]ccc3c2)c(=O)n1)OCc1ccccc1', 'label 0'),
  ('O=C(c1cccc(S(=O)(=O)N2CCCCCC2)c1)N1CCN(Cc2ccccc2)CC1', 'label 0'),
  ('O=C(c1cccc(Cl)c1)N1CCN(Cc2ccccc2)CC1', 'label 1'),
  ('CCOC(=O)N1CCC(c2cc(=O)n(-c3ccccc3)[nH]2)CC1', 'label 0'),
  ('CCOc1ccc(NC(=O)[C@H](C)NC(=O)C2CC(=O)N(c3ccc(OC)cc3)C2)cc1 (some centres undefined)', 'label 0'),
  ('CC[N+]1(CC)CC2=Cc3ccccc3CC2C1 (centres undefined)', 'label 0'),
  ('CC(C)CC(=O)N1CCN(Cc2cccc(Cl)c2)CC1', 'label 0'),
  ('CCOC(=O)c1cnc2c(c(C)nn2CC)c1Cl', 'label 0'),
  ('C/C=N/N(c1ccccc1)c1ccccc1', 'label 0');

Hi, sorry to bother you, what did the test record for `CN(C)c1ccc(C=NCCc2ccc(S(N)(=O)=O)cc2)cc1` ?
label 0

How did this test come out for `NS(=O)(=O)c1ccc(CCNC(=O)CCCn2c(SCC(=O)N3CCCC3)nc3ccsc3c2=O)cc1` ?
label 0

Field: outcome | Entry: Cc1ccc(S(=O)(=O)N2CC(C)N(S(C)(=O)=O)C2)cc1 (centres undefined)
label 0

I'd appreciate the recorded outcome for `CC(=O)c1c(O)cc2n(c1=O)-c1ccc(Cl)cc1C2(C)C` from this test.
label 0

// return assay outcome for `Cc1ccc2c(c1)N(S(=O)(=O)c1cc(-c3cc(C)no3)ccc1C)CCO2`
label 0

Please state the recorded outcome for this molecule: CN1c2ccc([N+](=O)[O-])cc2C(C)(C)C12C=Cc1cc(C(=O)O)ccc1O2 (centres undefined)
label 0

Give the logged outcome of this assay for the following molecule: Cc1cc(C)cc(Oc2nc3c(C)cccn3c(=O)c2/C=C(\C#N)C(=O)NC2CCS(=O)(=O)C2)c1 (centres undefined)
label 0

What was the test verdict on COc1ccc(NC2CCCN(C(=O)c3ccccc3-c3ncc[nH]3)C2)cc1 (centres undefined) ?
label 0

Kindly provide the recorded test outcome for the following molecule: `O=C1NC[C@H](CCCCN2C[C@H](Cc3ccc(O)cc3)N(CC3CCCCC3)C(=O)C2=O)N(CCc2ccccc2)C1=O`
label 0

Dear colleague, could you share the recorded outcome for `CCCc1nc(-c2ccccc2O)n(-c2ccccc2)n1` when you have a moment?
label 0

What is the recorded call for this molecule in the test? `O=C(CCN1CCN(C/C=C/c2ccccc2)CC1)Nc1cccc(F)c1`
label 0

Please share the test call associated with `O=P(O)(CP(=O)(c1ccccc1)c1ccccc1)c1ccccc1` .
label 1

What is the recorded call for this molecule in the test? `CCc1cccc2c(C=C(C#N)C#N)cn(CC(=O)N3CCCCC3)c12`
label 0

Which outcome was assigned to CCOC(=O)C1C(c2ccc(OC)c(OC)c2)c2c([nH][nH]c2=O)CC1(C)O (centres undefined) in this test?
label 0

Answer briefly: the call reported for `O=C(Nc1ccc(N2CCOCC2)nc1)c1c(F)cccc1F` in this assay.
label 0

Assay result, entry CSc1cccc(NC(=O)C2CCCN2S(=O)(=O)c2ccc3c(c2)CCC(=O)N3)c1 (centres undefined) — outcome?
label 0

What was the test verdict on `Nc1nc(SCc2cccc(Br)c2)n[nH]1` ?
label 0

Record request — test call for O=C(Nc1ccccc1F)C1C2C=CC3(O2)C1C(=O)N(c1cccnc1)C3C(=O)NC1CCCCC1 (centres undefined)
label 0

Call for entry `Cc1cc2ccccc2n1CCNC(=O)COc1ccc2ccccc2c1` :
label 1

What was the test verdict on `CCN(CC)C(=O)Oc1ccc(Br)cc1C(=O)Nc1ccc(F)c(Cl)c1` ?
label 0
